Test system: hairpin deoxyoligonucleotides (AATTT, AAAAA, AATAA, ATTAA)
assaySummary: Ethidium bromide displacement quantitative titration, Scatchard analysis
Type: binding
assaySetup: hairpin containing 5′-AAAAA, ethidium bromide displacement titration
experimentalReadout: binding constant for the hairpin containing AAAAA (M⁻¹)
Return type: number; implicit unit M⁻¹.

Reported binding constant for the hairpin containing AAAAA ( CC(=O)NCC(=O)O.CC(=O)NCC(=O)O.N=C(N)c1ccc(N=NNc2ccc(C(=N)N)cc2)cc1 [berenil] ) = 6.4e+06

Reported binding constant for the hairpin containing AAAAA ( Cl.Cl.N=C(N)c1ccc(-c2cc3ccc(C(=N)N)cc3[nH]2)cc1 [DAPI, 4′,6-Diamidine-2-phenylindole.2HCl] ) = 5e+07

Reported binding constant for the hairpin containing AAAAA ( CN1CCN(c2ccc3[nH]c(-c4ccc5[nH]c(-c6ccc(O)cc6)nc5c4)nc3c2)CC1 [Hoechst 33258] ) = 7.2e+07

Reported binding constant for the hairpin containing AAAAA ( Cn1cc(NC(=O)c2cc(NC(=O)c3cc(NC=O)cn3C)cn2C)cc1C(=O)NCCC(=N)N [distamycin A] ) = 1.7e+07

Reported binding constant for the hairpin containing AAAAA ( Cn1cc(NC(=O)c2cc(NC(=O)CN=C(N)N)cn2C)cc1C(=O)NCCC(=N)N [netropsin] ) = 3.47e+08

###

Test system: library of 512 hairpin deoxyoligonucleotides containing all possible five bp sequences
assaySummary: Fluorescent intercalator displacement (ethidium bromide) assay, 96-well, 512-member hairpin library
Assay type: binding
assaySetup: FIG. 24; 512 hairpins
experimentalReadout: 3 or 2 bp AT sites, statistical site frequency in the top 50 sequences (%)
Return type: number; implicit unit %.

Reported 3 or 2 bp AT sites, statistical site frequency in the top 50 sequences ( `CC(=O)NCC(=O)O.CC(=O)NCC(=O)O.N=C(N)c1ccc(N=NNc2ccc(C(=N)N)cc2)cc1` ) = 15

Reported 3 or 2 bp AT sites, statistical site frequency in the top 50 sequences ( `Cn1cc(NC(=O)c2cc(NC(=O)CN=C(N)N)cn2C)cc1C(=O)NCCC(=N)N` ) = 9

Reported 3 or 2 bp AT sites, statistical site frequency in the top 50 sequences ( `CN1CCN(c2ccc3[nH]c(-c4ccc5[nH]c(-c6ccc(O)cc6)nc5c4)nc3c2)CC1` ) = 19

Reported 3 or 2 bp AT sites, statistical site frequency in the top 50 sequences ( `Cn1cc(NC(=O)c2cc(NC(=O)c3cc(NC=O)cn3C)cn2C)cc1C(=O)NCCC(=N)N` ) = 27

Reported 3 or 2 bp AT sites, statistical site frequency in the top 50 sequences ( Cl.Cl.N=C(N)c1ccc(-c2cc3ccc(C(=N)N)cc3[nH]2)cc1 [DAPI, 4′,6-Diamidine-2-phenylindole.2HCl] ) = 14

###

Field: five bp AT sites found in the top 50 sequences. Provide a value for each of the compounds that follow.
System: library of 512 hairpin deoxyoligonucleotides containing all possible five bp sequences
assaySummary: Fluorescent intercalator displacement (ethidium bromide) assay, 96-well, 512-member hairpin library
Assay type: binding
assaySetup: share of the 16 five bp AT sites; 512 hairpins
Return type: number; implicit unit %.

Lab entry: library of 512 hairpin deoxyoligonucleotides containing all possible five bp sequences assay, compound Cn1cc(NC(=O)c2cc(NC(=O)c3cc(NC=O)cn3C)cn2C)cc1C(=O)NCCC(=N)N [distamycin A] , five bp AT sites found in the top 50 sequences = 88

Lab entry: library of 512 hairpin deoxyoligonucleotides containing all possible five bp sequences assay, compound CN1CCN(c2ccc3[nH]c(-c4ccc5[nH]c(-c6ccc(O)cc6)nc5c4)nc3c2)CC1 [Hoechst 33258] , five bp AT sites found in the top 50 sequences = 100

Lab entry: library of 512 hairpin deoxyoligonucleotides containing all possible five bp sequences assay, compound Cl.Cl.N=C(N)c1ccc(-c2cc3ccc(C(=N)N)cc3[nH]2)cc1 [DAPI, 4′,6-Diamidine-2-phenylindole.2HCl] , five bp AT sites found in the top 50 sequences = 100

Lab entry: library of 512 hairpin deoxyoligonucleotides containing all possible five bp sequences assay, compound Cn1cc(NC(=O)c2cc(NC(=O)CN=C(N)N)cn2C)cc1C(=O)NCCC(=N)N [netropsin] , five bp AT sites found in the top 50 sequences = 100

Lab entry: library of 512 hairpin deoxyoligonucleotides containing all possible five bp sequences assay, compound CC(=O)NCC(=O)O.CC(=O)NCC(=O)O.N=C(N)c1ccc(N=NNc2ccc(C(=N)N)cc2)cc1 [berenil] , five bp AT sites found in the top 50 sequences = 100
